# Test system: CypD
# run-description: CypD expression by Western blot
# condition-label: compound 0.001 μM + 150 μM H2O2, 6 h; % of H2O2 control cells

- compound: "C[C@]12CC(=O)[C@H](O)[C@](C)(CO)[C@@H]1CC[C@@]1(C)c3cocc3CC[C@H]21 [Compound 4, epispongiadiol]"
  system: "CypD"
  CypD expression under oxidative damage: "about 54%"
- compound: "C[C@]12C=C(O)C(=O)[C@](C)(CO)[C@@H]1CC[C@@]1(C)c3cocc3CC[C@H]21 [Compound 5, spongian diterpene 17]"
  system: "CypD"
  CypD expression under oxidative damage: "about 54%"
- compound: "CC1(C)[C@@H](O)C(=O)C[C@]2(C)[C@H]3CCc4cocc4[C@]3(C)CC[C@@H]12 [Compound 1]"
  system: "CypD"
  CypD expression under oxidative damage: "about 54%"
- compound: "CC1(C)C(=O)C(O)=C[C@]2(C)[C@H]3CCc4cocc4[C@]3(C)CC[C@@H]12 [Compound 2]"
  system: "CypD"
  CypD expression under oxidative damage: "37.9 ± 17.9%"

These measurements were taken from paper PMC9686139.
